Assay: wn = mass fraction of the nth substance listed
Conditions: 283.15 K; 101 kPa; Liquid; controlled-strain rheometer (ARES-RFS, TA Instruments); w1 = 0.05
Items are presented alongside their recorded viscosity.
MEASURE: viscosity (mPa·s)

>>> recorded_value("OC[C@H]1O[C@@](CO)(O[C@H]2O[C@H](CO)[C@@H](O)[C@H](O)[C@H]2O)[C@@H](O)[C@@H]1O [D-sucrose] + O")
1.72
>>> recorded_value("O=C(CO)[C@@H](O)[C@H](O)[C@H](O)CO [D-fructose] + O")
1.681
>>> recorded_value("O=C[C@H](O)[C@@H](O)[C@@H](O)[C@H](O)CO [(+)-galactose] + O")
1.699
>>> recorded_value("O=C[C@H](O)[C@@H](O)[C@H](O)[C@H](O)CO [D-glucose] + O")
1.76

----------
Assay: wn = mass fraction of the nth substance listed
Details: 278.15 K; 101 kPa; Liquid; controlled-strain rheometer (ARES-RFS, TA Instruments); w1 = 0.05
Items are presented alongside their recorded viscosity.
MEASURE: viscosity (mPa·s)

>>> recorded_value("O=C(CO)[C@@H](O)[C@H](O)[C@H](O)CO [D-fructose] + O")
1.999
>>> recorded_value("OC[C@H]1O[C@@](CO)(O[C@H]2O[C@H](CO)[C@@H](O)[C@H](O)[C@H]2O)[C@@H](O)[C@@H]1O [D-sucrose] + O")
1.91
>>> recorded_value("O=C[C@H](O)[C@@H](O)[C@@H](O)[C@H](O)CO [(+)-galactose] + O")
2.077
>>> recorded_value("O=C[C@H](O)[C@@H](O)[C@H](O)[C@H](O)CO [D-glucose] + O")
1.98

----------
Experiment: wn = mass fraction of the nth substance listed
Details: 283.15 K; 101 kPa; Liquid; controlled-strain rheometer (ARES-RFS, TA Instruments); w1 = 0.4
Items are presented alongside their recorded viscosity.
MEASURE: viscosity (mPa·s)

>>> recorded_value("O=C[C@H](O)[C@@H](O)[C@@H](O)[C@H](O)CO [(+)-galactose] + O")
9
>>> recorded_value("OC[C@H]1O[C@@](CO)(O[C@H]2O[C@H](CO)[C@@H](O)[C@H](O)[C@H]2O)[C@@H](O)[C@@H]1O [D-sucrose] + O")
11.31
>>> recorded_value("O=C[C@H](O)[C@@H](O)[C@H](O)[C@H](O)CO [D-glucose] + O")
9.63
>>> recorded_value("O=C(CO)[C@@H](O)[C@H](O)[C@H](O)CO [D-fructose] + O")
8.07
